Tested on: rice (Or)
assaySummary: Test Example 4: selectivity for a crop plant by flooded paddy field treatment
Format: in vivo
Set-up: scale not given here
recordedConditions: rice transplanted at second leaf stage, dose 25 g active ingredient per 10 ares, examined on the 21st day after treatment
parameter: Or (effect on crop plant rice, index)

Solved cases below.
CSc1ccc(CC(=O)N(C)C(c2cncnc2C(F)(F)F)C(C)C)cc1 (racemic) [Compound 1-44] = 0
Cc1ncncc1C(C(C)C)N(C)C(=O)Cc1ccccc1 (racemic) [Compound 1-87] = 1
CC(C)C(c1cncnc1C(F)(F)F)N(C)C(=O)Cc1cc(F)ccc1F (racemic) [Compound 1-40] = 0
Cc1ccc(CC(=O)N(C)C(c2cncnc2C)C(C)C)cc1 (racemic) [Compound 1-89] = 0
CC(C)C(c1cncnc1C(F)(F)F)N(C)C(=O)Cc1cccc(Cl)c1 (racemic) [Compound 1-21] = 1

Hey, quick one: what's Or (effect on crop plant rice, index) for each of these?
1. O=C(Cc1ccc(C(F)(F)F)cc1)NC(c1cncnc1C(F)(F)Cl)C1CC1 (racemic) [Compound 1-4]
2. COCc1ccc(CC(=O)N(C)C(c2cncnc2C(F)(F)F)C(C)C)cc1 (racemic) [Compound 1-76]
3. Cc1ccc(CC(=O)N(C2CC2)C(c2cncnc2C(F)(F)F)C(C)C)cc1 (racemic) [Compound 1-82]

Reply:
1: 1; 2: 0; 3: 0
